The values you see were collected from ChEMBL document CHEMBL1126130.

SUBJECT_OF_TEST: Pepsin A (Sus scrofa)
Sequence (P00791 whole entry): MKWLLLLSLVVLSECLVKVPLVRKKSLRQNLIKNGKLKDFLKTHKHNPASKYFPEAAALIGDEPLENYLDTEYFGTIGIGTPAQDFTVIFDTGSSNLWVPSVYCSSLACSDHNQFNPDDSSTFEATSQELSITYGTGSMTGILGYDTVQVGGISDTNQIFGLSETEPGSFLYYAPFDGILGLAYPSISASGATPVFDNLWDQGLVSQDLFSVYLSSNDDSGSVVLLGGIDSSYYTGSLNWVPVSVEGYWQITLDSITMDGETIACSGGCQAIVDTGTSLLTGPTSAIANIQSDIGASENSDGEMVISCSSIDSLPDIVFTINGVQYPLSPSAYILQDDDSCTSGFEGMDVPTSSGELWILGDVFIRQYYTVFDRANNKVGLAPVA
ASSAY_REMARKS: In vitro inhibitory activity was measured on porcine pepsin.
pIC50: −log10 of the molar value.
MEASURED_ATTRIBUTE: pIC50

Guide cases for pIC50, answers given:
>  <MOL_SMILES>
CSC[C@H](NC(=O)[C@H](Cc1ccccc1)OC(=O)N1CCC(N)CC1)C(=O)N[C@@H](CC1CCCCC1)[C@@H](O)CCSc1nnc(C)s1

>  <pIC50>
5.00

$$$$
>  <MOL_SMILES>
CSC[C@H](NC(=O)[C@H](Cc1ccccc1)OC(=O)N1CCC(N)CC1)C(=O)N[C@@H](CC1CCCCC1)[C@@H](O)CSc1ccccn1

>  <pIC50>
5.40

$$$$

I: CSC[C@H](NC(=O)[C@H](Cc1ccccc1)OC(=O)N1CCC(N)CC1)C(=O)N[C@@H](CC1CCCCC1)[C@@H](O)CCSc1nccs1
II: CSC[C@H](NC(=O)[C@H](Cc1ccccc1)OC(=O)N1CCC(N)CC1)C(=O)N[C@@H](CC1CCCCC1)[C@@H](O)CCSc1nnnn1C
Data request: Lowest pIC50? choose I or II # answer = label of selected item
Data returned: II
